# System: RUES2-GLR human gastruloids
# assayRemarks: Human gastruloid assay, RUES2-GLR line
# conditionParameters: summary statements
measuredMetric: overall outcome in the human gastruloid model

• CC1=C(/C=C/C(C)=C/C=C/C(C)=C/C(=O)O)C(C)(C)CCC1 [Retinoic Acid, All-trans retinoic acid] = similarly teratogenic
• CCCC(CCC)C(=O)O = similarly teratogenic
• O=C1CCC(N2C(=O)c3ccccc3C2=O)C(=O)N1 (centres unmarked) [Thalidomide] = potentially teratogenic
• COc1ccccc1Oc1c(NS(=O)(=O)c2ccc(C(C)(C)C)cc2)nc(-c2ncccn2)nc1OCCO = potentially teratogenic

----------
This listing pairs compounds with measured hiPSC- derived EBs TC20.
# Tested on: hiPSC-derived EBs
# assayRemarks: Human 3D in vitro model, hiPSC-derived embryoid bodies
# Format: cell-based
# conditionParameters: threshold concentration where 20 % of teratogenicity was detected by differential expression
Field: numeric (µM). Do not append units.

Worked examples, 2 compounds total:
* CCCC(CCC)C(=O)O [Valproic Acid] | 85
* CC(C)Cc1ccc(C(C)C(=O)O)cc1 (centres unmarked) [Ibuprofen] | 855

Lab note: next compound to report on.
GET /value?item= COc1ccccc1Oc1c(NS(=O)(=O)c2ccc(C(C)(C)C)cc2)nc(-c2ncccn2)nc1OCCO [Bosentan] &field=hiPSC- derived EBs TC20 returns 13

The values you see were collected from paper PMC8522962.
